Origin of values: ChEMBL document CHEMBL3808377

assay: Aqueous solubility of the compound at pH 6.8; assay type: physicochemical
Give MET when the value for solubility is at least 80 µM. Give NOT MET when it is less.

Answered cases to consult:
# smiles code, category label
records = [
    ("C[C@H]1Cc2c(ncnc2Oc2ccc3c(ccn3C(=O)Nc3cc(C4(C(F)(F)F)CC4)on3)c2)CN1", "NOT MET"),
    ("CC(C)(C)c1cc(NC(=O)n2ccc3nc(Oc4ncnc5c4CNC5)ccc32)no1", "MET"),
    ("CC(C)(C)c1cc(NC(=O)n2ccc3cc(Oc4ncnc5c4CNC5)cnc32)no1", "NOT MET"),
]

*Q* Test whether the compound CC(C)(C)c1cc(NC(=O)n2ncc3cc(Oc4ncnc5c4CNC5)ccc32)no1 records solubility of 80 µM or higher.
*A* NOT MET

*Q* Another compound: C[C@H]1Cc2c(ncnc2Oc2ccc3ccn(C(=O)Nc4cc(C5(C(F)(F)F)CC5)on4)c3c2)CN1
*A* NOT MET

*Q* Param item: CC(C)(C)c1cc(NC(=O)n2ccc3ncc(Oc4ncnc5c4CNC5)cc32)no1
*A* MET

*Q* Would you kindly repeat that for CC1(c2cc(NC(=O)c3ccn4cc(Oc5ncnc6c5CNC6)ccc34)n[nH]2)CC1 ?
*A* MET

*Q* Further, for CC(C)(C)c1cc(NC(=O)c2cnc3cc(Oc4ncnc5c4CNC5)ccn23)no1 ?
*A* MET

----------
For Voltage-gated inwardly rectifying potassium channel KCNH2 (Homo sapiens, UniProt Q12809), measured pIC50 is reported for the entries below.
Quick note: pIC50 means taking -log10 of the concentration in moles per liter.

*Q* Give the measured pIC50 of CC(C)(C)c1cc(NC(=O)n2ccc3ccc(Oc4ncnc5c4CNC5)cc32)no1 .
*A* 4.68

*Q* Same lookup for CC(C)(C)c1cc(NC(=O)c2cnc3cc(Oc4ncnc5c4CNC5)ccn23)no1 , please.
*A* 5.04

*Q* Now try CC(C)(C)c1cc(NC(=O)n2ccc3cc(Oc4ncnc5c4CNC5)cnc32)no1 .
*A* 5.24

----------
The compounds listed here are annotated with their IC50.
target: Voltage-gated inwardly rectifying potassium channel KCNH2 (Homo sapiens, UniProt Q12809)
Sequence (Q12809 whole entry): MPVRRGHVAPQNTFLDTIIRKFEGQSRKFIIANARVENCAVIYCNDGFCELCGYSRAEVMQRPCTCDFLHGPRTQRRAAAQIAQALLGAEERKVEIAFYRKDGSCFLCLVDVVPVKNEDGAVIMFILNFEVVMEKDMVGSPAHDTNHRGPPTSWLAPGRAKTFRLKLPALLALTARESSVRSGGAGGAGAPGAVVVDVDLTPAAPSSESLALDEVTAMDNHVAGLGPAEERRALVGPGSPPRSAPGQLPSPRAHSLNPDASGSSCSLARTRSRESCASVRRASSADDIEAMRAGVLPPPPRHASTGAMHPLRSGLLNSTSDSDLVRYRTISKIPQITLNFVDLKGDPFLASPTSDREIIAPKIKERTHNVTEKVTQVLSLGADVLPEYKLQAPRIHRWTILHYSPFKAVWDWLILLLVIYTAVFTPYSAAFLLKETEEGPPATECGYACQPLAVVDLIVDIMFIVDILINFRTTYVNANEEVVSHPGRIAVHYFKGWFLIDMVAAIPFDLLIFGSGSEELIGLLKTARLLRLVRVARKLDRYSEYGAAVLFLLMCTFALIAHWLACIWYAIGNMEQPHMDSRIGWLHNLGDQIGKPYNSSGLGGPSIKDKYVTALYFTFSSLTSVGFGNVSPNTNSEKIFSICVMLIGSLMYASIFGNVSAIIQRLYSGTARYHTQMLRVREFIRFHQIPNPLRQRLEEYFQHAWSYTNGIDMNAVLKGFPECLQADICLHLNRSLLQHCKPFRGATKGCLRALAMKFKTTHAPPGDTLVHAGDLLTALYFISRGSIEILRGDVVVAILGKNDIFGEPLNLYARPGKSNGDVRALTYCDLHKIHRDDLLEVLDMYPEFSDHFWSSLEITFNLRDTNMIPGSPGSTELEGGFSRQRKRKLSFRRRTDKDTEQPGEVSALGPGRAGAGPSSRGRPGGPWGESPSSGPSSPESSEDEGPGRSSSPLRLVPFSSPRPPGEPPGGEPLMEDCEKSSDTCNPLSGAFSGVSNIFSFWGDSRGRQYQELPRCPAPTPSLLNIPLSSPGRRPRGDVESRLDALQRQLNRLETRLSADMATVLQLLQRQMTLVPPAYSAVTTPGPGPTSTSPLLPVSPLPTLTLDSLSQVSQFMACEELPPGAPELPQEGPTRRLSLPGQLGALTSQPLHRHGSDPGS

# example entries with known answers
# smiles code, readout type, recorded measurement
rows = [
    ("CC(C)(C)c1cc(NC(=O)n2ccc3ncc(Oc4ncnc5c4CNC5)cc32)no1", "IC50", "> 30 µM"),
    ("CC(C)(C)c1cc(NC(=O)n2ncc3cc(Oc4ncnc5c4CNC5)ccc32)no1", "IC50", "7.7 µM"),
    ("C[C@H]1Cc2c(ncnc2Oc2ccc3c(ccn3C(=O)Nc3cc(C4(C(F)(F)F)CC4)on3)c2)CN1", "IC50", "7.4 µM"),
    ("C[C@H]1Cc2c(ncnc2Oc2ccc3ccn(C(=O)Nc4cc(C5(C(F)(F)F)CC5)on4)c3c2)CN1", "IC50", "8.6 µM"),
]

*Q* Which value of IC50 has been reported for CC(C)(C)c1cc(NC(=O)n2ccc3nc(Oc4ncnc5c4CNC5)ccc32)no1 in the records?
*A* 26 µM
